# target.entity: T1, histidine-labeled cynomolgus monkey 4-1BB protein (cynomolgus monkey)
# T1 construct: also called Monkey 4-1BB protein antigen (histidine-labeled); cynomolgus monkey 4-1BB protein and his tag (Acrobiosystem, #41B-052H4)
# assay.comment: BLI Octet RED96, AHC sensor, his-tagged antigen
observed.property: kon (M⁻¹ s⁻¹)
Respond with the bare value in M⁻¹ s⁻¹.

PR001840 (antibody, human IgG1, V domains shown, HCAb, heavy chain only, human IgG1 Fc; also called 1016P0037D2) VH: EVQLVESGGGLVQPGGSLRLSCAASGFTFSSYWMHWVRQAPGKGLVWVSRINSDGSSTSYADSVQGRFTISRDNAKNTLYLQMNSLRAEDTAVYYCVRKGSSSYYHYSIEDDWGQGTLVTVSS: 62000

Next:
Given PR001838 (antibody, human IgG1, V domains shown, HCAb, heavy chain only, human IgG1 Fc; also called 1016P0030B2) VH: EVQLLESGGGLVQPGGSLRLSCAASGFTFSNYAMSWFRQPPETGLKWVSSIDGSGGDTYYADSVKGRFTISRDNSKNTLYLQMNSLRAEDTAVYYCAKEGSHGTDDSHYDVDVWGQGTTVTVSS , state its recorded kon.
143000

src = patent US20230242658A1
